Target: T1, Human IL2Rγ extracellular domain expressed with a C-terminal myc-myc-hexahistidine tag (human)
T1 construct: also called hIL-2Rg-MMH; hIL-2RG-MMH
T1 chain: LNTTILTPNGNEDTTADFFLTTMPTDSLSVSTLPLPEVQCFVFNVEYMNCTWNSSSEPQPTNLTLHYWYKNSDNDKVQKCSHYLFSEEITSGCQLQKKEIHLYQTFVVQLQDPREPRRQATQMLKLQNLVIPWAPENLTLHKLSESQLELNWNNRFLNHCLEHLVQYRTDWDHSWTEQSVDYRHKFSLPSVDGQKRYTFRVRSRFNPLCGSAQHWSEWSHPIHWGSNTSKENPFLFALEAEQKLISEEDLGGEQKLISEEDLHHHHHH
Assay: SPR Biacore 4000, mAb captured by anti-hFc, HBS-ET, 25C
Please assign a class to every record based on measured Kd, with ranges lower (below 2 nM), middle (2 nM to below 4 nM), upper (4 nM or more)

Sample answers from the record:
binder | classification
H4H12884P (antibody, human IgG4 S228P, kappa, V domains shown, anti-IL2Rγ monoclonal antibody expressed with human IgG4 Fc) VH: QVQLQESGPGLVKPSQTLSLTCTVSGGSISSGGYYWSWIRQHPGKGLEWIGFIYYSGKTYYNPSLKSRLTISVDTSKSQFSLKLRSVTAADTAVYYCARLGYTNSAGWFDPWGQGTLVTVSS VL: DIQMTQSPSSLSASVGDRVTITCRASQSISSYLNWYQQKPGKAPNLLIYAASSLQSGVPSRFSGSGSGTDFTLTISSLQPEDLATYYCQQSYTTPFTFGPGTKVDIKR | upper
H4H13538P (antibody, human IgG4 S228P, kappa, V domains shown, anti-IL2Rγ monoclonal antibody expressed with human IgG4 Fc) VH: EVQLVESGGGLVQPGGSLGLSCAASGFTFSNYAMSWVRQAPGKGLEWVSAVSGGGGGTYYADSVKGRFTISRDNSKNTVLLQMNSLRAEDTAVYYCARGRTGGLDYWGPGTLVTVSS VL: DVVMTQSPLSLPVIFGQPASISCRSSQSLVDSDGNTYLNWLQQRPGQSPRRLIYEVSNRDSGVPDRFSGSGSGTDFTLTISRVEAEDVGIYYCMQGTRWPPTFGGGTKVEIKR | lower
H4H13541P (antibody, human IgG4 S228P, kappa, V domains shown, anti-IL2Rγ monoclonal antibody expressed with human IgG4 Fc) VH: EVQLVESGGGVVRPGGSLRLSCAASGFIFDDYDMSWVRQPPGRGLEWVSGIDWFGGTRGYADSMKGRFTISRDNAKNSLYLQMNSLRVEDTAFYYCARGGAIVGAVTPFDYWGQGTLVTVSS VL: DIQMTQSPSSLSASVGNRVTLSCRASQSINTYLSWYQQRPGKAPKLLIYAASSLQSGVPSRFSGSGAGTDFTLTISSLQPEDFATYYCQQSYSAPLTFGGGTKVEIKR | middle
H4H12899P (antibody, human IgG4 S228P, kappa, V domains shown, anti-IL2Rγ monoclonal antibody expressed with human IgG4 Fc) VH: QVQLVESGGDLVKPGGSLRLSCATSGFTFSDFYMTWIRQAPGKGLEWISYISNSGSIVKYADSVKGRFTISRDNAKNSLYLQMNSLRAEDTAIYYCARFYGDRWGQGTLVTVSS VL: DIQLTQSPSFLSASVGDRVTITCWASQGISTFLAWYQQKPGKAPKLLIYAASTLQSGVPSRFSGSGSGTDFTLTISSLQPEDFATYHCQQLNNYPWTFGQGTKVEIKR | middle
H4H12890P (antibody, human IgG4 S228P, kappa, V domains shown, anti-IL2Rγ monoclonal antibody expressed with human IgG4 Fc) VH: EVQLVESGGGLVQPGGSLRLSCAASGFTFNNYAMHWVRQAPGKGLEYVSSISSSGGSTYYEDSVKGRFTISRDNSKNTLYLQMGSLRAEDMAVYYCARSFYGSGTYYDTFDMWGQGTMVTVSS VL: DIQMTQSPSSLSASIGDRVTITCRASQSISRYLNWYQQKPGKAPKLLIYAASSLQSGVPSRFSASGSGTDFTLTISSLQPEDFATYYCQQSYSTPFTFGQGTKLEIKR | upper

Consider the record given below.
For this binder, which bin applies? H4H12889P (antibody, human IgG4 S228P, kappa, V domains shown, anti-IL2Rγ monoclonal antibody expressed with human IgG4 Fc; also called REGN7257) VH: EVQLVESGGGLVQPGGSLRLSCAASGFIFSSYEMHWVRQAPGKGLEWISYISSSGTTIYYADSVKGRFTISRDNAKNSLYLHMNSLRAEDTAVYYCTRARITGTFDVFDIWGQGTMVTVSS VL: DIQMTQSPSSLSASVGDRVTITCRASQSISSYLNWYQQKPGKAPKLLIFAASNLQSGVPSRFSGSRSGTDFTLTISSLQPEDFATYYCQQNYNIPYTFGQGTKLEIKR lower
